Where do the numbers come from? From ChEMBL document CHEMBL1137531.

- targetOrTestSystem: Tyrosine-protein kinase ABL1 (Homo sapiens, UniProt P00519)
- Sequence (P00519 whole entry): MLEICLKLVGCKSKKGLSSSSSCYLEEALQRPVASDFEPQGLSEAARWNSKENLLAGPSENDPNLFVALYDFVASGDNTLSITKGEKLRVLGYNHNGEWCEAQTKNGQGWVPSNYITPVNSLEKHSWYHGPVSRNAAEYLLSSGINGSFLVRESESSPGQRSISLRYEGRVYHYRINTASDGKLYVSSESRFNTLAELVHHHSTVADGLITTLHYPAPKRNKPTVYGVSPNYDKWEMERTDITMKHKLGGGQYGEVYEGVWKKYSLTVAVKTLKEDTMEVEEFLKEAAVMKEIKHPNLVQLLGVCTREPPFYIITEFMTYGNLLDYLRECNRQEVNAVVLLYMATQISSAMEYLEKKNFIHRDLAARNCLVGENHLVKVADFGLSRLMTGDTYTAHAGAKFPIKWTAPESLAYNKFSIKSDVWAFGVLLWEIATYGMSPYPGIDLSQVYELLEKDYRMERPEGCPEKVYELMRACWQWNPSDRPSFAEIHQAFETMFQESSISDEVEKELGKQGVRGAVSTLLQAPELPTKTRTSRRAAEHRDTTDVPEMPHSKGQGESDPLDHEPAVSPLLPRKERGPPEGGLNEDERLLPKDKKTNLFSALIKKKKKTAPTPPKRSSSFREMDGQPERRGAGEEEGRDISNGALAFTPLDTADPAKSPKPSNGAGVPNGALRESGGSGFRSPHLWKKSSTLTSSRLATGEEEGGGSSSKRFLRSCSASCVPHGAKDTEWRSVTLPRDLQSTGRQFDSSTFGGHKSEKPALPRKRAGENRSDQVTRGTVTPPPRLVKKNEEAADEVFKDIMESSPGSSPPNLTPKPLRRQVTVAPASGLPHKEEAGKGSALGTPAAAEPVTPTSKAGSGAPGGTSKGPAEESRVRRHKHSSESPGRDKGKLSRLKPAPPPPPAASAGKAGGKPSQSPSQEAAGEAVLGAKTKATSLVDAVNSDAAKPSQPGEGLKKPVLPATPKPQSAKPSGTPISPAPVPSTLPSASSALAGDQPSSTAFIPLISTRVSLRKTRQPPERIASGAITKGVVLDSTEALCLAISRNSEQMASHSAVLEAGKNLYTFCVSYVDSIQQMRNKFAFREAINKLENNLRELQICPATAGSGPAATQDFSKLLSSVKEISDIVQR
measurementName: pIC50
As a rule, pIC50 stands for the negative log10 of the concentration, concentration in M.

Request the reported pIC50 associated with "CC(C)NCc1ccc(Nc2cc(-c3ccc(-c4ccc(O)cc4O)cc3)[nH]n2)cc1"
5.96

----------
- targetOrTestSystem: Serine/threonine-protein kinase Nek2 (Homo sapiens, UniProt P51955)
- Sequence (P51955 whole entry): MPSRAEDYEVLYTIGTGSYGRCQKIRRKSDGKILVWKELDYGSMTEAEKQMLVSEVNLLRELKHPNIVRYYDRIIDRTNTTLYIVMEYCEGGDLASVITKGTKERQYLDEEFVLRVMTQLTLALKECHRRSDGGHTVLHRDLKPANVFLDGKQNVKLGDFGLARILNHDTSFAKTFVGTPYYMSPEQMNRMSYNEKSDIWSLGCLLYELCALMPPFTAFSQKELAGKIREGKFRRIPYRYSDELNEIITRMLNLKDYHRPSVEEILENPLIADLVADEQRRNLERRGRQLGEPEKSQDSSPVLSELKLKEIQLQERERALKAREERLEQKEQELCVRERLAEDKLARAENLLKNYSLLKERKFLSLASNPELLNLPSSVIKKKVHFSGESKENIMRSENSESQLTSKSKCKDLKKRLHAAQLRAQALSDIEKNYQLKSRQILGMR
measurementName: pIC50
As a rule, pIC50 stands for the negative log10 of the concentration, concentration in M.

Request the reported pIC50 associated with "CC(C)NCc1ccc(Nc2cc(-c3ccc(-c4ccc(O)cc4O)cc3)[nH]n2)cc1"
5.98

----------
- targetOrTestSystem: Serine/threonine-protein kinase Chk1 (Homo sapiens, UniProt O14757)
- assayProtocol: Activity at human CHK1 in CA46 cells by histone H3 ELISA assay
Label criterion met when EC50 is strictly below 200 nM; at or above that, label criterion not met.

Some solved entries appear below for comparison.
Oc1ccc(-c2ccc(-c3cc(Nc4ccc(CN5CCCCC5)nc4)[nH]n3)cc2)c(O)c1 : criterion met
Oc1ccc(-c2ccc(-c3cc(Nc4ccccc4)n[nH]3)cc2)c(O)c1 : criterion not met
CCC(C)NCc1ccc(Nc2cc(-c3ccc(-c4ccc(O)cc4O)cc3)n[nH]2)cn1 (stereo not drawn) : criterion not met
O=C(Nc1ccc(O)cc1O)c1ccc2c(-c3nc4ccccc4[nH]3)n[nH]c2c1 : criterion not met
Oc1ccc(-c2ccc(-c3cc(Nc4ccc(CNCC5CC5)nc4)[nH]n3)cc2)c(O)c1 : criterion met

Please determine if "Oc1ccc(-c2ccc(-c3cc(Nc4ccc(CN5CCCC5)cc4)n[nH]3)cc2)c(O)c1" is below 200 nM in terms of EC50.
criterion met

Also need "CN(C)Cc1ccc(Nc2cc(-c3ccc(-c4ccc(O)cc4O)cc3)[nH]n2)cc1" , thanks.
criterion met

Also need "Oc1ccc(-c2ccc(-c3cc(Nc4ccc(CNC5CC5)cc4)n[nH]3)cc2)c(O)c1" , thanks.
criterion met

----------
- targetOrTestSystem: Serine/threonine-protein kinase Chk1 (Homo sapiens)
- Sequence (O14757 whole entry): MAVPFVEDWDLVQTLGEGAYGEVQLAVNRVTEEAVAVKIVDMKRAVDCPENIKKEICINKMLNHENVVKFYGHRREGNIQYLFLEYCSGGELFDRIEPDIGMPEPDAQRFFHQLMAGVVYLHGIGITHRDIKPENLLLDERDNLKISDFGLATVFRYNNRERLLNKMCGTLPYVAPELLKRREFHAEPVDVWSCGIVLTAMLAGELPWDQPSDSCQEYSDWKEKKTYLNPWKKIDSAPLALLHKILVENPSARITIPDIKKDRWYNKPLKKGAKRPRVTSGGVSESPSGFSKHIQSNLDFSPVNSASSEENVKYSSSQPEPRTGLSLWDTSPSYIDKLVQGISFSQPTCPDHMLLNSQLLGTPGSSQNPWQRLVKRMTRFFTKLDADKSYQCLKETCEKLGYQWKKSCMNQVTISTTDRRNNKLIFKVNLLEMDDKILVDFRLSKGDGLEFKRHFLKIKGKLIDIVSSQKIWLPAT
Examples of compounds with documented pKi follow.
As a rule, pKi stands for the negative log10 of the concentration, concentration in M.

Some entries whose results are on file:
CN(C)Cc1ccc(Nc2cc(-c3ccc(-c4ccc(O)cc4O)cc3)[nH]n2)cc1 : 9.72
CCC(C)NCc1ccc(Nc2cc(-c3ccc(-c4ccc(O)cc4O)cc3)n[nH]2)cn1 (stereo not drawn) : 9.70

Now for the compound whose pKi we want.
Request the reported pKi associated with "O=C(Nc1ccc(O)cc1O)c1ccc2c(-c3nc4ccccc4[nH]3)n[nH]c2c1"
9.30

----------
- targetOrTestSystem: Cyclin-dependent kinase 1 (Homo sapiens, UniProt P06493)
- Sequence (P06493 whole entry): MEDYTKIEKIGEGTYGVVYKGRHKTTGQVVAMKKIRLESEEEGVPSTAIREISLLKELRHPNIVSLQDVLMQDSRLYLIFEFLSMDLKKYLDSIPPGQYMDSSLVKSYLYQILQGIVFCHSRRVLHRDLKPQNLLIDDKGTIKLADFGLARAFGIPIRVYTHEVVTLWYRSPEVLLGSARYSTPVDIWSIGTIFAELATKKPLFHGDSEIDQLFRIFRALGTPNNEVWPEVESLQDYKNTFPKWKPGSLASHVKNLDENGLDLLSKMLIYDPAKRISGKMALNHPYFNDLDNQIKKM
measurementName: pIC50
As a rule, pIC50 stands for the negative log10 of the concentration, concentration in M.

Request the reported pIC50 associated with "CC(C)NCc1ccc(Nc2cc(-c3ccc(-c4ccc(O)cc4O)cc3)[nH]n2)cc1"
5.48

----------
- targetOrTestSystem: Calcium/calmodulin-dependent protein kinase type 1 (Homo sapiens, UniProt Q14012)
- Sequence (Q14012 whole entry): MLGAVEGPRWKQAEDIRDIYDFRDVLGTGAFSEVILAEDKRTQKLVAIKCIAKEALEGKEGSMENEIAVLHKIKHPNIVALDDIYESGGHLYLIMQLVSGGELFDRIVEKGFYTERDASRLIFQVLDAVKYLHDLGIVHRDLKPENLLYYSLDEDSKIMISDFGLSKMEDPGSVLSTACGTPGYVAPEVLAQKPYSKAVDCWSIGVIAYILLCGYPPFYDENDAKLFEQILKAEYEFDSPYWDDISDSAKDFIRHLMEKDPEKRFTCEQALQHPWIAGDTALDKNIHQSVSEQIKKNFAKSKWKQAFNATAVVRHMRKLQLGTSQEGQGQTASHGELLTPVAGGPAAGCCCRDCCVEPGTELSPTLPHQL
- assayProtocol: Inhibition of CAMK1
measurementName: pIC50
As a rule, pIC50 stands for the negative log10 of the concentration, concentration in M.

Request the reported pIC50 associated with "CC(C)NCc1ccc(Nc2cc(-c3ccc(-c4ccc(O)cc4O)cc3)[nH]n2)cc1"
5.67

----------
- targetOrTestSystem: Aurora kinase A (Homo sapiens)
- Sequence (O14965 whole entry): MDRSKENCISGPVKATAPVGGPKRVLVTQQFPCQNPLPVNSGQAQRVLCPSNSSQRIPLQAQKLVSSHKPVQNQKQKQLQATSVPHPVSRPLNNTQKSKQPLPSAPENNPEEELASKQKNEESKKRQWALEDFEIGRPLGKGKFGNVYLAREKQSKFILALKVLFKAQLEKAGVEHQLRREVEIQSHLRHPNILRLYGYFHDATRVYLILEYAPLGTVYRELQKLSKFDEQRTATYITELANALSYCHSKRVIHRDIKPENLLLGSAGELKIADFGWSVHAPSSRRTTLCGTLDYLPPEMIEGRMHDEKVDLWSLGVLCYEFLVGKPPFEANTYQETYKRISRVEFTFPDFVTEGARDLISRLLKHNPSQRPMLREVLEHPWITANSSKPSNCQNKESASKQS
measurementName: IC50 (µM)
Please reply with the bare figure in µM and do not write the unit itself.

What is its IC50 for Aurora kinase A (Homo sapiens)? Entry: "CC(C)NCc1ccc(Nc2cc(-c3ccc(-c4ccc(O)cc4O)cc3)[nH]n2)cc1"
10
